- Tested on: MCF-7 cells
- test.description: MTT antiproliferative assay, MCF-7
- Format: cell-based, human
- setup.conditions: Homo sapiens, MCF7, 72 h, read-out: calculated IC50 value
Measured pIC50, listed per entry for reference.
API: returns pIC50 as number; meaning -log10 of concentration in mol/L.

Ask: Reported pIC50, compound `COc1ccc2c(c1)CC[C@@H]1[C@@H]2CC[C@@]2(C)C(=O)[C@@H](CP(=O)(c3ccc(C)cc3)c3ccc(C)cc3)C[C@@H]12` : ____
Result: 4.84

Ask: And for `COc1ccc2c(c1)CC[C@@H]1[C@@H]2CC[C@@]2(C)C(=O)[C@H](CP(=O)(c3ccc(C)cc3)c3ccc(C)cc3)C[C@@H]12` ?
Result: 4.83

Ask: And for `C[C@@]12CC[C@@H]3c4ccc(OCc5ccccc5)cc4CC[C@H]3[C@@H]1C[C@H](CP(=O)(c1ccccc1)c1ccccc1)C2=O` ?
Result: 4.78

Ask: And for `COc1ccc2c(c1)CC[C@@H]1[C@@H]2CC[C@@]2(C)C(=O)[C@H](CP(=O)(c3ccccc3)c3ccccc3)C[C@@H]12` ?
Result: 4.86

====

Measured inhibition at 30 µM, listed per entry for reference.
- Test system: MDA-MB-231 cells
- test.description: MTT antiproliferative assay, MDA-MB-231
- Type: cell-based, human
- setup.conditions: Homo sapiens, MDA-MB-231, 72 h, read-out: Growth inhibition; % ± SEM
Could you give me the number in %? Just the number is fine.

COc1ccc2c(c1)CC[C@@H]1[C@@H]2CC[C@@]2(C)C(=O)[C@H](CP(=O)(c3ccccc3)c3ccccc3)C[C@@H]12    99

Could you now consider this next compound?
Ask: Reported inhibition at 30 µM, compound `C[C@@]12CC[C@@H]3c4ccc(OCc5ccccc5)cc4CC[C@H]3[C@@H]1C[C@H](CP(=O)(c1ccccc1)c1ccccc1)C2=O` : ____
Result: 84

====

- Test system: MDA-MB-231 cells
- test.description: MTT antiproliferative assay, MDA-MB-231
- Format: cell-based, human
- setup.conditions: Homo sapiens, MDA-MB-231, 72 h, read-out: Growth inhibition; % ± SEM
- Protocol: The antiproliferative properties of the newly synthesized compounds (9–20) and their starting materials (4 and 5) were determined on a panel of human adherent cancer cell lines. MCF-7, MDA-MB-231 and T47D were isolated from breast cancers differing in biochemical background, while A2780 cells were isolated from ovarian cancer. HeLa and SiHa are cervical cancer cell lines positive for HPV-18 and HPV-16, respectively, while C33-A cervical cancer cells are negative for HPV. […]
measurement.label: inhibition at 30 µM

Consider the reported inhibition at 30 µM for these molecules:
CC12CCC3c4ccc(OCc5ccccc5)cc4CCC3C1CC(CP(=O)(c1ccc3ccccc3c1)c1ccc3ccccc3c1)C2=O (stereo not drawn)    < 20%
COc1ccc2c(c1)CCC1C2CCC2(C)C(=O)C(CP(=O)(c3ccc4ccccc4c3)c3ccc4ccccc4c3)CC12 (stereo not drawn)    < 20%
COc1ccc2c(c1)CC[C@@H]1[C@@H]2CC[C@@]2(C)C(=O)[C@H](CP(=O)(c3ccc(C)cc3)c3ccc(C)cc3)C[C@@H]12    95.6%

Ask: Reported inhibition at 30 µM, molecule `Cc1ccc(P(=O)(C[C@@H]2C[C@H]3[C@@H]4CCc5cc(OCc6ccccc6)ccc5[C@H]4CC[C@@]3(C)C2=O)c2ccc(C)cc2)cc1` : ____
Result: < 20%

Ask: And for `COc1ccc2c(c1)CC[C@@H]1[C@@H]2CC[C@@]2(C)C(=O)[C@@H](CP(=O)(c3ccc(C)cc3)c3ccc(C)cc3)C[C@@H]12` ?
Result: 98.2%

Ask: And for `C[C@@]12CC[C@@H]3c4ccc(OCc5ccccc5)cc4CC[C@H]3[C@@H]1C[C@@H](CP(=O)(c1ccccc1)c1ccccc1)C2=O` ?
Result: < 20%
